- Protocol Description: recombinant UMI read abundance after kanamycin selection (control-corrected) (log10(CPM+1)); higher = more efficient recombination; extreme values may be limits of the assay; sequences stand for … in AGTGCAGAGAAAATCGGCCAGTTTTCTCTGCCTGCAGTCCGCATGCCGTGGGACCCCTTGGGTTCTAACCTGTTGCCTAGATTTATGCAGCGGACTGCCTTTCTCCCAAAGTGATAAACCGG…AGGTTGGTTTCACT; site = the 11-nt donor;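 further: IS621 bridge recombinase in Escherichia coli cells against a fixed T5 target plasmid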
Each record here notes measured recombinant UMI read abundance (log10).
Reply briefly: the number, and no unit.

Example entries begin here.
Monomer Sequence: GTTAGAGCATGGACCGGTTTTCCCGGTAATCCGTATTTGCA (site GTTGGAGCTTG)
Observed Property: recombinant UMI read abundance (log10)
Observed Value: 1.6
--
Monomer Sequence: CCCATACCATGGACCGGTTTTCCCGGTAATCCGTATTTGTC (site CCCATAACTGA)
Observed Property: recombinant UMI read abundance (log10)
Observed Value: 0

Form: sequence = TTCGGTGCATGGACCGGTTTTCCCGGTAATCCGTATTTGCC (site TTCGGTGCTGG) ; recombinant UMI read abundance (log10) = 0

Form: sequence = GCGGAGGCATGGACCGGTTTTCCCGGTAATCCGTATTTGAG (site GCGGAGGCTCT) ; recombinant UMI read abundance (log10) = 1.89

Form: sequence = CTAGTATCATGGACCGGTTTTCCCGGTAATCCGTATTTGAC (site CTAATATCTGT) ; recombinant UMI read abundance (log10) = 1.63

Form: sequence = AGCGTGACATGGACCGGTTTTCCCGGTAATCCGTATTTGCC (site AGCGTGACTGG) ; recombinant UMI read abundance (log10) = 1.78

Form: sequence = GCTAAAACATGGACCGGTTTTCCCGGTAATCCGTATTTGCT (site GCGAAAACTAG) ; recombinant UMI read abundance (log10) = 1.28
